# Tested on: Staphylococcus sp.
# Procedure text: MIC, tube dilution method
# Assay type: cell-based
# Experimental parameters: Staphylococcus sp. (PC)r; BHI broth
Starred links: 1 amine or outer side, 2 acyl side, 3 side chain; linkers in the order of their positions; H or OH if unused. Positions of bridges follow the written chain, without caps; N, C: chain ends. Non-standard residues stand in square brackets, D forms with d. Residues, ends and D or L forms follow the SMILES beside them. ξ: configuration not given here. *: point of attachment. X2 = CC(C)[C@H](C)[C@@H](C(=O)[*:2])N(C)[*:1]; NMeLeu(3ξ-Me) = CN[C@H](C(=O)O)C(C)C(C)C; d(cisHyp) = O=C(O)[C@H]1C[C@@H](O)CN1; X1 = CC(C)C(C)C(C(=O)[*:2])N(C)[*:1]; Picolinoyl(3-OH) = O=C(c1ncccc1O)*; NMePhg = CN[CH](C(=O)O)c1ccccc1; Thr(3ξ) = CC(O)[C@H](N)C(=O)O; Hyp = O=C(O)[CH]1C[CH](O)CN1; Abu = CC[CH](N)C(=O)O; Sar = CNCC(=O)O
Listing of recorded MIC by entry.
Property: MIC (µg/mL)

>>> observed_value("CC[C@@H]1NC(=O)[C@H](C(C)C(C)C)N(C)C(=O)CN(C)C(=O)[C@H]2CCCN2C(=O)[C@@H](CC(C)C)NC(=O)[C@@H](NC(=O)c2ncccc2O)C(C)OC(=O)[C@H](c2ccccc2)N(C)C1=O (stereo partly drawn) [NV I, neoviridogrisein I] ({Picolinoyl(3-OH)}-[Thr(3ξ)][dL][dP][Sar][NMeLeu(3ξ-Me)][Abu][NMePhg]; ester 1-C)")
0.8
>>> observed_value("CC(C)CC1NC(=O)C(NC(=O)c2ncccc2O)C(C)OC(=O)C(c2ccccc2)N(C)C(=O)C(C)NC(=O)C(C(C)C(C)C)N(C)C(=O)CN(C)C(=O)C2CCCN2C1=O (stereo not shown) [NV II, neoviridogrisein II] ({Picolinoyl(3-OH)}-TLP[Sar][X1]A[NMePhg]; ester 1-C; configuration not given here)")
0.4
>>> observed_value("CCC1NC(=O)C(C(C)C(C)C)N(C)C(=O)CN(C)C(=O)C2CC(O)CN2C(=O)C(CC(C)C)NC(=O)C(NC(=O)c2ncccc2O)C(C)OC(=O)C(c2ccccc2)N(C)C1=O (stereo not shown) [NV III, neoviridogrisein III] ({Picolinoyl(3-OH)}-TL[Hyp][Sar][X1][Abu][NMePhg]; ester 1-C; configuration not given here)")
0.8
>>> observed_value("CC(C)C[C@H]1NC(=O)[C@@H](NC(=O)c2ncccc2O)[C@@H](C)OC(=O)[C@H](c2ccccc2)N(C)C(=O)[C@H](C)NC(=O)[C@H]([C@@H](C)C(C)C)N(C)C(=O)CN(C)C(=O)[C@H]2C[C@@H](O)CN2C1=O [VG, viridogrisein] ({Picolinoyl(3-OH)}-T[dL][d(cisHyp)][Sar][X2]A[NMePhg]; ester 1-C)")
0.4

These data points were gathered from patent US4536397A.
